Target: gH/gL/UL128/UL130/UL131A pentamer complex (PC) of HCMV strain TR virus (human cytomegalovirus strain TR)
Test: cell-based or functional assay
So basically, if IC50, inhibition of TR cell-to-cell spread in ARPE-19 comes in under 20 µg/mL it's true, and if it's 20 µg/mL or more it's false.

Consider the worked cases shown below.
21F6 (antibody, V domains shown, also called NAb 21F6) VH: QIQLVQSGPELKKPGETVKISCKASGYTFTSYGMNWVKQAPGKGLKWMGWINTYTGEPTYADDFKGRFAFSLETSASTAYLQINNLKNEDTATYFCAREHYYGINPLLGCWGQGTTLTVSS VL: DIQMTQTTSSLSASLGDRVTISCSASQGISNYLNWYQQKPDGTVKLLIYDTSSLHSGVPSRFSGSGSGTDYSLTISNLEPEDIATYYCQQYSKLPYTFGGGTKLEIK : true
1B2 (antibody, V domains shown, also called NAb 1B2) VH: EVQLVESGGVLVKPGGSLKLSCAASGFTFSDYYMYWVRQTPEKRLEWVATISDDGNYTNYPDSVKGRFTISRDNAKNNLYLQMSSLKSEDTAMYYCARGWLLPVFAYWGQGTLVTVSA VL: DIVLTQSPATLSVTPGDSVSLSCRASQSIGNNLHWYQQKSHESPRLLIKYTSQSISGIPSRFSGSGSGTDFTLNINSVETEDFGVYFCQQSNRWPWTFGGGTKLEIK : true
54E11 (antibody, V domains shown, also called NAb 54E11) VH: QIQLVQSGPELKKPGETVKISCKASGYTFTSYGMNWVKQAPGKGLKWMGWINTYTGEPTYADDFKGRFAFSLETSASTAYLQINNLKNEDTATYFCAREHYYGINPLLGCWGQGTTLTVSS VL: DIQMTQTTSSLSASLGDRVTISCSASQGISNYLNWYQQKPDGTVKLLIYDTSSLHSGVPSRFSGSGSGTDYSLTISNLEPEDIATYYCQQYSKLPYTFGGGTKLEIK : true
13B5 (antibody, V domains shown, also called NAb 13B5; 1365) VH: QVTLKESGPGILKPSQTLSLTCSFSGFSLTTSGLGVGWIRQPSGKGLEWLAHIWWDDDKYFNPSLRNQLTISKDTSRNQVFLEITSVTTADTATYYCVRSLYDYDEGYYFDSWGQGTTLTVSS VL: EIVMIQSPATLSVNPGDRVSLSCRASQSISDYLHWYQQKSHESPRLLIKYASQSISGIPSRFSGSGSGSDFTLSINSVEPEDVGVYYCQNGHTFPPTFGGGTKLEIK : false

For the next question, use this binder.
Query :: Please determine if 12E2 (antibody, V domains shown, also called NAb 12E2) VH: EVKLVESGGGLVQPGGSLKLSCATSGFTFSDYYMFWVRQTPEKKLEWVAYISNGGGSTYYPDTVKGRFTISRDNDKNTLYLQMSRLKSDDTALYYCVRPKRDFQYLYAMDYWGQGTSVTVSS VL: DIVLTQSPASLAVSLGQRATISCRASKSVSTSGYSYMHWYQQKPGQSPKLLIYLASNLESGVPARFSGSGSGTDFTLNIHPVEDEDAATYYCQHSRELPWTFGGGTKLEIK is below 20 µg/mL in terms of IC50, inhibition of TR cell-to-cell spread in ARPE-19.
Result :: true
